MEASUREMENT NOTES: Counterscreen for APE1 Inhibitors: Fluorescent Dye Displacement Validation Assay (AID 1707)
CONDITION CONTEXT: fluorescent dye displacement from DNA; series mostly up to 57.1 µM
Inconclusive results are not listed. Calls of active or inactive are those of the source. Calls follow the shape of the dose curve; as a rule, active = well fitted inhibition curve with a large enough effect; inconclusive = small, poorly fitted or top-dose-only effect; inactive = no such curve, though single readings can be large or run the other way.
Select the matching outcome among active, inactive

As a guide, the following entries are already answered.
INSERT INTO results (molecule, assigned_class) VALUES
  ('Oc1ccc(C2CNCc3sccc32)cc1O (configuration not stated)', 'inactive'),
  ('CCCCCCCCCCCCCCCCCC(=O)OC(CC(=O)O)C[N+](C)(C)C (configuration not stated)', 'inactive'),
  ('CCCCC/C=C\CC(O)/C=C/c1cccc(CC(O)CCCCO)n1 (configuration not stated)', 'inactive'),
  ('Fc1cccc(/C=N/N=C/c2cccc(F)c2)c1', 'inactive'),
  ('O=C(O)CNC(=O)C(CS)Cc1ccccc1 (configuration not stated)', 'inactive'),
  ('c1cnc2c(c1)ccc1cccnc12', 'inactive'),
  ('CN1CCc2ccccc2Cc2[nH]c3ccccc3c2CC1', 'inactive'),
  ('NC(N)=NC(=O)c1nc(Cl)c(N2CCCCCC2)nc1N', 'inactive'),
  ('O=c1[nH]c2ccccc2n1CCCN1CCN(C(c2ccccc2)c2ccccc2)CC1', 'inactive'),
  ('O=C(O)[C@@H]1C[C@@H](C(=O)O)N1', 'inactive');

What classification did `N.N.O=C(O)C1(C(=O)O)CCC1.[Pt]` end up with in this test? inactive

What classification did `O=C1NC(O)=NC1(c1ccccc1)c1ccccc1` end up with in this test? inactive

What classification did `CC(C)Cc1ccc([C@H](C)C(=O)O)cc1` end up with in this test? inactive

What classification did `CN(C)c1nc2c(Br)c(Br)c(Br)c(Br)c2[nH]1` end up with in this test? inactive
